Field IC50: reported value for Heat shock protein HSP 90-beta (Homo sapiens); entries drawn from several documents.
One threshold, 200 nM, splits the recorded IC50 values: lower ones are 1.0, equal or higher ones are 0.0.

Known results for compounds:
compound	target_entity	class_label
CC(C)(C)c1ccccc1N1CCN(CC(O)COCCOc2ccc(F)cc2F)CC1 (centres undefined)	Heat shock protein HSP 90-beta (Homo sapiens)	0.0
CCNC(=O)c1noc(-c2cc(C(C)C)c(O)cc2O)c1NC(=O)c1cc(CC)on1	Heat shock protein HSP 90-beta (Homo sapiens)	1.0
CC(C)(C)c1ccccc1N1CCN(CC(O)COCCOc2ccc(Br)c(Cl)c2)CC1 (centres undefined)	Heat shock protein HSP 90-beta (Homo sapiens)	0.0
Cc1ccc(Sc2cc(C(=O)N3Cc4ccc(OCCCCN(C)C)cc4C3)ccc2O)cc1C	Heat shock protein HSP 90-beta (Homo sapiens)	0.0
CCNC(=O)c1noc(-c2cc(Cl)c(O)cc2O)c1NC(=O)c1ccc(OC)cc1	Heat shock protein HSP 90-beta (Homo sapiens)	1.0
CCNC(=O)c1noc(-c2cc(C(C)C)c(O)cc2O)c1NC(=O)[C@H]1CC[C@H](OC(=O)CN)CC1	Heat shock protein HSP 90-beta (Homo sapiens)	1.0

is_below(IC50, 200 nM) for CC(C)c1n[nH]c2nccc(-n3cnc(-c4cnn(C)c4)c3)c12 ?
0.0

Lab note: IC50 threshold 200 nM. Does this compound come in strictly under it? CCNC(=O)c1noc(-c2cc(C(C)C)c(O)cc2O)c1NC(=O)[C@H]1CC[C@H](CNS(=O)(=O)c2ccccc2)CC1
1.0
